# experimental context: pampa; pH 5.0; 30.0 min; 50.0 µM
Bucketed by reported Papp, buckets being lower range (below 70 ×10⁻⁶ cm/s), middle range (70 ×10⁻⁶ cm/s to below 200 ×10⁻⁶ cm/s), upper range (200 ×10⁻⁶ cm/s or more)

compound | group
CCc1ccccc1-n1c(SCC(=O)Nc2ccc(C)cc2)nc2n[nH]c(C)c2c1=N | upper range
O=C1Nc2cc(Cl)ccc2Nc2cscc21 | lower range
O=C(Nc1ccc2c(N3CCOCC3)ncnc2c1)c1cccc(Br)c1 | upper range
CN1CCN(c2ccc(Nc3nn4c(=O)c5ccccc5nc4s3)cc2)CC1 | lower range
Cc1ccccc1-c1nc(NCc2ccc(-c3cccnc3)cc2)c2ccccc2n1 | upper range
CC1=C[C@@H](CNCc2cccnc2)[C@H](C(C)C)C[C@H]1Cc1nnc(-c2ccc([N+](=O)[O-])cc2)o1 | upper range
O=C(Nc1ccc(F)cc1F)c1cc(-c2ccc[nH]2)n[nH]1 | middle range
Oc1ccc(CN2CC(CNc3ccccc3)C3(C2)CN(c2ccccc2)C3)cc1 (stereo unspecified) | upper range
CN1CCN(Cc2ccc(-c3ccc(C(C)(C)C#N)cc3)nc2)CC1 | lower range
Cc1cccc(N(C)c2nc3ccccc3c3nnc(C)n23)c1 | upper range
COc1cc(Cl)c(C)cc1Nc1c2c(nc3ccccc13)CCC2 | upper range
CN1CCN(C2=Nc3ccccc3Sc3ccc(Cl)cc32)CC1 | upper range
COc1ccc(-n2c(C)c(C(C)=O)c3cc(OC(=O)COc4ccccc4)ccc32)cc1 | upper range
O=C(O)C1CCN(c2ncc(-c3ccc4c(c3)OCCCO4)s2)CC1 | upper range
COC[C@@H]1CN(C(=O)c2nn(C)c3ccccc23)C[C@H]1c1nc(C)no1 | lower range
CCOc1cc(CNc2ccc(O)cc2)ccc1OCc1ccc(Cl)cc1 | middle range
O=C(CCCCn1c(=O)[nH]c2ccsc2c1=O)N1CCN(c2cccc(Cl)c2)CC1 | upper range
COc1ccc(C(=O)N[C@@H]2CCC[C@@H]2C(=O)N2CCC(Cc3ccccc3)CC2)cc1 | upper range
COc1ccc(-c2ccc3ncc4c(c3c2)n(-c2ccc(N3CCNCC3)c(C(F)(F)F)c2)c(=O)n4C)cn1 | middle range
CCOc1ccc(-c2nnc(SCC(=O)NCc3ccccc3Cl)o2)cc1 | lower range
